- target.entity: human orexin 2 receptor (Homo sapiens (Human), UniProt O43614)
- Sequence (O43614 whole entry): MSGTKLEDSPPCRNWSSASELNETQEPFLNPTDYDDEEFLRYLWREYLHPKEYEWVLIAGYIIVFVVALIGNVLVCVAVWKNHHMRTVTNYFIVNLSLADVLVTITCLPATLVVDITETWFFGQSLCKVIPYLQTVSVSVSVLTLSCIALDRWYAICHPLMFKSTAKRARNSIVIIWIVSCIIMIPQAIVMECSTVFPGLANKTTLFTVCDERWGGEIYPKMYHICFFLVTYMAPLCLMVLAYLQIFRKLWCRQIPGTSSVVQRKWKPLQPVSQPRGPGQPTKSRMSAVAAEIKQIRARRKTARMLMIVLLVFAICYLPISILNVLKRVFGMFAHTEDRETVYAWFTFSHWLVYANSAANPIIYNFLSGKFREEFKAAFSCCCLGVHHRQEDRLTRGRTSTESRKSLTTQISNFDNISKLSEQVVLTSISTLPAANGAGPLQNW
- experiment.description: Human orexin 2 receptor radioligand binding ([3H]-EMPA competition, HEK293 membranes)
pKi: −log10 of the molar value.
Documented pKi across a set of molecules
experimental.endpoint: pKi

molecule | experimental.endpoint | result.operator | measured
[2H]C1(Nc2cnc(C(F)(F)F)cn2)CC2CCC1N2C(=O)c1cccc(F)c1-c1ncccn1 (centres unmarked) [Example 395] | pKi | = | 6.05
O=C(c1cccc(F)c1-c1ncc(F)cn1)N1C2CCC1C(Oc1ccc(C(F)(F)F)cn1)C2 (racemic) [Example 434] | pKi | < | 5.00
Cc1cccc(C(=O)N2C3CCC2C(Oc2cnc(C(F)(F)F)cn2)C3)c1-n1nccn1 (racemic) [Example 444] | pKi | = | 5.38
O=C(c1cccc(F)c1-n1nccn1)N1C2CCC1C(Oc1ccc(C(F)(F)F)cn1)C2 (racemic) [Example 423] | pKi | = | 5.31
Cc1cccc(C(=O)N2C3CCC2C(Oc2ccc(C(F)(F)F)cn2)C3)c1-c1ncco1 (racemic) [Example 435] | pKi | = | 6.28
O=C(c1c(F)cccc1-n1nccn1)N1C2CCC1C(Oc1ccc(C(F)(F)F)cn1)C2 (racemic) [Example 425] | pKi | = | 5.29
O=C(c1c(F)cccc1-c1ncccn1)N1C2CCC1C(Oc1ccc(C(F)(F)F)cn1)C2 (racemic) [Example 431] | pKi | = | 5.29
O=C(c1cccc(F)c1-c1ncco1)N1C2CCC1C(Oc1ccc(C(F)(F)F)cn1)C2 (racemic) [Example 436] | pKi | = | 5.46

====

- target.entity: human orexin 1 receptor (Homo sapiens (Human), UniProt O43613)
- Sequence (O43613 whole entry): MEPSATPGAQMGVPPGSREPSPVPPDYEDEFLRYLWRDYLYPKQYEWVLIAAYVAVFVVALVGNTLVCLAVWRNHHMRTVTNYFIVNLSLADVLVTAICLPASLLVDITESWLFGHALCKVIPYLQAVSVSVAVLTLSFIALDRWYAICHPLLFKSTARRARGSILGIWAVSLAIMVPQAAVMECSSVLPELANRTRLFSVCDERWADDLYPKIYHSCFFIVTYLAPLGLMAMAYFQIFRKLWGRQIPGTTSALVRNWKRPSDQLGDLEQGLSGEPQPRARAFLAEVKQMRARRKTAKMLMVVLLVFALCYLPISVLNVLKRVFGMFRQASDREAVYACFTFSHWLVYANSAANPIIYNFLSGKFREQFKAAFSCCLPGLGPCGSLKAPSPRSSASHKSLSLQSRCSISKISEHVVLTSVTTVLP
- experiment.description: Human orexin 1 receptor radioligand binding (competitive binding, CHO membranes)
- cond: read-out: hOX1 Ki
pKi: −log10 of the molar value.

smiles.representation | pKi
O=C(c1ncccc1-c1ncccn1)N1[C@@H]2CC[C@H]1[C@H](Nc1ccc(C(F)(F)F)cn1)C2 | 7.60
O=C(c1ccccc1-c1ncc(F)cn1)N1[C@@H]2CC[C@H]1[C@H](Nc1cnc(C(F)(F)F)cn1)C2 | 7.62
Cc1cccc(C(=O)N2[C@@H]3CC[C@H]2[C@H](Nc2ncc(Br)cn2)C3)c1-c1ncco1 | 7.85
O=C(c1c(F)cccc1-c1ncco1)N1[C@@H]2CC[C@H]1[C@H](Nc1cnc(C(F)(F)F)cn1)C2 | 7.51
O=C(c1ccccc1-c1ccccc1)N1[C@@H]2CC[C@H]1[C@H](Nc1cnc(C(F)(F)F)cn1)C2 | 7.77
O=C(c1cccc(F)c1-c1ncccn1)N1[C@@H]2CC[C@H]1[C@H](Nc1cnc(Br)cn1)C2 | 7.66
O=C(c1cc(F)ccc1-c1ncco1)N1[C@@H]2CC[C@H]1[C@H](Nc1cnc(C(F)(F)F)cn1)C2 | 7.05
O=C(c1cccc(F)c1-n1nccn1)N1[C@@H]2CC[C@H]1[C@H](Nc1cnc(Br)cn1)C2 | 7.68
O=C(c1ccccc1-c1ncccn1)N1[C@@H]2CC[C@H]1[C@H](Nc1cnc(C(F)(F)F)cn1)C2 | 7.72
O=C(c1ccccc1-c1ncccn1)N1[C@@H]2CC[C@H]1[C@H](Nc1ncc(C(F)(F)F)cn1)C2 | 7.39

====

- target.entity: human orexin 1 receptor (Homo sapiens (Human))
- experiment.description: Human orexin 1 receptor radioligand binding (competitive binding, CHO membranes)
- cond: human orexin 1 receptor; Table 2, averages from between 2-20 runs; read-out: hOX1 Ki

molecule | result.operator | Ki / µM
Cc1cccc(C(=O)N2[C@@H]3CC[C@H]2[C@H](Nc2ccc(C#N)cn2)C3)c1-n1nccn1 [Example 391] | = | 0.315
Cc1cccc(C(=O)N2[C@@H]3CC[C@H]2[C@H](Nc2ccc(C#N)cn2)C3)c1-c1ncccn1 [Example 393] | = | 0.323
O=C(c1cccc(F)c1-c1ncccn1)N1[C@@H]2CC[C@H]1[C@H](Nc1ncc(C(F)(F)F)cc1F)C2 [Example 382] | = | 0.015
Cc1cccc(C(=O)N2[C@@H]3CC[C@H]2[C@H](Nc2cnc(Br)cn2)C3)c1-c1ncccn1 [Example 310] | = | 0.007
Cc1cnc(C(=O)N2[C@@H]3CC[C@H]2[C@H](Nc2ncc(C(F)(F)F)cc2F)C3)c(-n2nccn2)c1 [Example 420] | = | 0.114
CN(c1ccc(C(F)(F)F)cn1)[C@@H]1C[C@H]2CC[C@@H]1N2C(=O)c1cccc(F)c1-c1ncccn1 [Example 377] | = | 0.141
O=C(c1cccc(F)c1-c1ncccn1)N1[C@H]2CC[C@@H]1[C@@H](Nc1cnc(C(F)(F)F)cn1)C2 [Example 297] | > | 10
O=C(c1c(F)cccc1-c1ncccn1)N1[C@@H]2CC[C@H]1[C@H](Nc1ncc(C(F)(F)F)cn1)C2 [Example 416] | = | 0.085
O=C(c1ccc(F)cc1-n1nccn1)N1[C@@H]2CC[C@H]1[C@H](Nc1ccc(C(F)(F)F)cn1)C2 [Example 368] | = | 0.071
O=C(c1cccc(F)c1-c1ncc(F)cn1)N1[C@@H]2CC[C@H]1[C@H](Nc1cnc(C(F)(F)F)cn1)C2 [Example 398] | = | 0.081
O=C(c1cccc(F)c1-n1nccn1)N1[C@@H]2CC[C@H]1[C@H](Nc1ncc(C(F)(F)F)cc1Cl)C2 [Example 383] | = | 0.016
Cc1cccc(C(=O)N2[C@@H]3CC[C@H]2[C@H](Nc2ccc(Br)cn2)C3)c1-c1ncccn1 [Example 304] | = | 0.016
O=C(c1cccc(F)c1-c1ncco1)N1C2CCC1C(Oc1ccc(C(F)(F)F)cn1)C2 (racemic) [Example 436] | = | 0.116
Cc1cnc(-n2nccn2)c(C(=O)N2[C@@H]3CC[C@H]2[C@H](Nc2cnc(C(F)(F)F)cn2)C3)c1 [Example 401] | = | 0.394
O=C(c1cccc(F)c1-c1ncco1)N1[C@@H]2CC[C@H]1[C@H](Nc1ccc(C(F)(F)F)cn1)C2 [Example 298] | = | 0.018
Cc1cccc(C(=O)N2[C@@H]3CC[C@H]2[C@H](Nc2ccc(C(F)(F)F)cn2)C3)c1-c1ncccn1 [Example 299] | = | 0.007
O=C(c1c(F)cccc1-n1nccn1)N1[C@@H]2CC[C@H]1[C@H](Nc1ccc(C(F)(F)F)cn1)C2 [Example 370] | = | 0.142
O=C(c1cc(F)ccc1-c1ncccn1)N1[C@@H]2CC[C@H]1[C@H](Nc1ccc(C(F)(F)F)cn1)C2 [Example 371] | = | 0.027
O=C(c1cccc(F)c1-c1ncccn1)N1[C@@H]2CC[C@H]1[C@H](Nc1ncc(Br)cn1)C2 [Example 315] | = | 0.052
O=C(c1cccc(F)c1-n1nccn1)N1[C@@H]2CC[C@H]1[C@H](Nc1ncc(Br)cn1)C2 [Example 317] | = | 0.07
O=C(c1ccccc1-c1ncccn1)N1[C@@H]2CC[C@H]1[C@H](Nc1ncc(C(F)(F)F)cc1Cl)C2 [Example 386] | = | 0.029
O=C(c1ccc(F)cc1-c1ncccn1)N1C2CCC1C(Oc1ccc(C(F)(F)F)cn1)C2 (racemic) [Example 430] | = | 0.3
O=C(c1cccc(F)c1-n1nccn1)N1C2CCC1C(Oc1ccc(Br)cn1)C2 (racemic) [Example 440] | = | 0.1
O=C(c1ncccc1-c1ncccn1)N1[C@@H]2CC[C@H]1[C@H](Nc1ncc(C(F)(F)F)cc1Cl)C2 [Example 387] | = | 0.033
O=C(c1cccc(F)c1-n1nccn1)N1[C@@H]2CC[C@H]1[C@H](Nc1ccc(C(F)F)cn1)C2 [Example 388] | = | 0.118
N#Cc1ccc(N[C@@H]2C[C@H]3CC[C@@H]2N3C(=O)c2cccc(F)c2-n2nccn2)nc1 [Example 390] | = | 1.4
N#Cc1ccc(N[C@@H]2C[C@H]3CC[C@@H]2N3C(=O)c2cccc(F)c2-c2ncccn2)nc1 [Example 392] | = | 1.4
O=C(c1ccccc1-c1ncccn1)N1C2CCC1C(Oc1ccc(C(F)(F)F)cn1)C2 (racemic) [Example 432] | = | 0.307
O=C(c1ncccc1-c1ncccn1)N1[C@@H]2CC[C@H]1[C@H](Nc1cnc(C(F)(F)F)cn1)C2 [Example 406] | = | 0.044
